Data origin: paper PMC2948022

Run Description: Urine concentrations of
Type: in vivo, human
Condition Parameters: CRPS patient, (R,S)-Ket 40 mg/h continuous infusion, morning of Day 3; estimated using the standard curve for (2S,6S); (2R,6R)-hydroxynorketamine
Property: Urine (ng/mL)
One number for each entry, in ng/mL.

Need Urine, item N[C@]1(c2ccccc2Cl)C[C@@H](O)CCC1=O (single isomer, unassigned; peak 4d) [Peak 4d]
475

Now this one: NC1(c2ccccc2Cl)CC(O)CCC1=O (single isomer, unassigned) [Peak 4e]
515

Now this one: N[C@]1(c2ccccc2Cl)CC[C@H](O)CC1=O (single isomer, unassigned; peak 4c) [Peak 4c]
940

Attention now turns to another entry.
Need Urine, item NC1(c2ccccc2Cl)CCCC(O)C1=O (single isomer, unassigned; peak 4b) [Peak 4b]
572
